Reported Ratio 197/206 by item:
# TARGET_OF_ASSAY: GST-SNAP25 197 (UniProt P60880)
# Sequence (P60880 1-197 limits assumed): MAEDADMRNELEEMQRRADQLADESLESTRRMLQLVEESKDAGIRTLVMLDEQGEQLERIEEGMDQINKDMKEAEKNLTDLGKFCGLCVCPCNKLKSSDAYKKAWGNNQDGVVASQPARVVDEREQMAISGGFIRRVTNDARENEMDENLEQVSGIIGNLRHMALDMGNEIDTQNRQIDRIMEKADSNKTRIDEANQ
# RUN_DESCRIPTION: direct ELISA; A450 on GST-SNAP25 197 divided by A450 on GST-SNAP25 FL

BINDER	Ratio 197/206
D2 (antibody, V domains shown) VH: DVKLQESGPGLVKPSQSLSLTCSVTGYSITSGYYWNWIRQFPGNKLEWMGYIRYDGSNNYNPSLKNRISITRDTSKNQFFLKLNSVTTEDTASYYCARDRDSSYYFDYWGQGTALTVSS VL: DIVMTQSSSYLSVSLGGRVTITCKASDHINNWLAWYQQKPGNAPRLLISDTTSLETGVPSRFSGSGSGKDYTLSITSLQTEDVATYYCQQYWSAPPTFGGGTKLEIK	0.03
C24 (antibody, V domains shown) VH: EVKLVESGGGLVQPKGSLKLSCAASGYTFNTYAMNWVRQAPGKGLEWVARIRSKSNNYTTYYADSVKDRFTISRDDSQSMLYLQINNLKTEDTAMYYCVGQILYYYVGSPAWFAYWGQGTLVTVSA VL: DIVMTQSPASLAVSLGQRATISCRASKSVSTSGYSYMHWYQQKPGQPPKLLIFLASNLESGVPARFSGSGSGTDFTLNIHPVEEEDAATYYCQHSRELPWTFGGGTKLEIK	973
D3 (antibody, V domains shown) VH: EVQLEESGGGLVQPGGSLKLSCAASGFTFSNYGMSWVRQTPDKRLELVATINSNGGTTYYPDSVKGRFTISRDNAKNTLYLQMSSLKSEDSAMYYCARDRDAMDYWGQGTSVTVSS VL: DVLMTQTPLSLPVSLGDQASISCRSSQSIVNSHGNTYLEWYLQKPGQSPKLLIYKVSNRFSGVPDRFSGSGSGTDFTLKISRVEAEDLGVYYCFQGSHVPWTFGGGTKLEIK	12.9
